- Protocol Summary: Human liver microsome stability
- Assay type: in vitro ADME
- Run Conditions: NCF, 60 min, given as fraction
Below, each of the compounds is paired with its reported Human Liver Microsome Stability Remaining(NCF = 60 min) value.
Form rule: numeric answer, no unit written next to it.

Some entries whose results are on file:
| Compound | Measured Number |
| --- | --- |
| N[C@H](C(=O)N1CCCC(c2ccccc2)(c2ccccc2)C1)C1CC1 | 0.9563 |
| Cc1cccn2c(CC(=O)NCCC(c3ccccc3)c3ccco3)cnc12 (stereo not shown) | 0.9639 |
| C[C@]12CC[C@H]3[C@@H](CCC4=CC(=O)CC[C@@]43C)[C@@H]1CC[C@@H]2O [Testosterone, reference compound] | 0.8976 |

QUERY: Please look at this compound and report its Human Liver Microsome Stability Remaining(NCF = 60 min): O=C(O)Cc1ccccc1Nc1c(Cl)cccc1Cl [Diclofenac, reference compound]
RESULT: 0.8763

====

- Assayed Target: hACSS-2 (Homo sapiens (Human))
- Sequence (Q9NR19 whole entry): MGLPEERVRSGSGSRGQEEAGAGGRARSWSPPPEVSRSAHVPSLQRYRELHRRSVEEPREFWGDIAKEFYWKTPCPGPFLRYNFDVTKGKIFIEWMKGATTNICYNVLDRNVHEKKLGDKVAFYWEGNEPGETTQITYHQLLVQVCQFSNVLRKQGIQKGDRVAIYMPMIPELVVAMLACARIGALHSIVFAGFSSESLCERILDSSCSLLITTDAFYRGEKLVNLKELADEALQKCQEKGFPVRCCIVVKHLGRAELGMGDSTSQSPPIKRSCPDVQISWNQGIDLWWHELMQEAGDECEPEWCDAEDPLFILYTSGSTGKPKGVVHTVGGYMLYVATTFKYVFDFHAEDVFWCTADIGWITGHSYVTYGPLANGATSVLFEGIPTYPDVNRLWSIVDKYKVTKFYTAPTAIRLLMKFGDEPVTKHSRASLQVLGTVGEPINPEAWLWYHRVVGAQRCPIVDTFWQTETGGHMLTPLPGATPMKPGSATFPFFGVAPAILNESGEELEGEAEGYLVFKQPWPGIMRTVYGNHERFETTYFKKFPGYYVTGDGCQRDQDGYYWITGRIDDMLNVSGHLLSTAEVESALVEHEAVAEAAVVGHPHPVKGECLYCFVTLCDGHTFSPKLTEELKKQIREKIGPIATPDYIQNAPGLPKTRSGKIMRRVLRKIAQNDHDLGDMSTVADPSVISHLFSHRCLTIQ
- Protocol Summary: Surface plasmon resonance (SPR) binding to immobilized hACSS-2
- Run Conditions: global fit, mean, n = 3; read-out: KD [μM] kinetic/global
Listing: Kd of selected compounds
Just the number in µM, nothing appended.

See these solved cases before continuing.
| Compound | Kd (µM) |
| --- | --- |
| N[C@H](C(=O)N1CCCC(c2ccccc2)(c2ccccc2)C1)C1CC1 | 149 |
| Cc1cccn2c(CC(=O)NCCC(c3ccccc3)c3ccco3)cnc12 (stereo not shown) | 77.6 |
| O=C(CC1CCNC1)NCCC(c1ccccc1)c1ccccc1 (stereo not shown) | 149 |

QUERY: Write Kd of CN1CCC(O)(C(=O)NCCc2ccccc2Oc2ccccc2)CC1 ; system used: hACSS-2 (Homo sapiens (Human))
RESULT: 49.4

====

- Assayed Target: hACSS-2 (Homo sapiens (Human))
- Protocol Summary: Surface plasmon resonance (SPR) binding to immobilized hACSS-2
- Run Conditions: read-out: Affinity (KD in μM) for hACSS-2 mean ± SD (n = 3); SPR, one site binding model isotherm, triplicate
Simple rule here: Kd less than 90 µM is yes (1), otherwise no (0).

| Molecule | Assayed Target | Qualitative Label |
| --- | --- | --- |
| NC1(C(=O)N2CCCC(c3ccccc3)(c3ccccc3)C2)CC1 [AD-6772] | hACSS-2 (Homo sapiens (Human)) | yes (1) |
| CN1CCN(CCC(=O)N2CCCC(c3ccccc3)(c3ccccc3)C2)CC1 [AD-0029] | hACSS-2 (Homo sapiens (Human)) | no (0) |
| O=C(CC1CCNC1)NCCC(c1ccccc1)c1ccccc1 (stereo not shown) [AD-8972] | hACSS-2 (Homo sapiens (Human)) | no (0) |
| O=S(=O)(NCCC(c1ccccc1)c1ccco1)N1CCOCC1 (stereo not shown) [AD-4859] | hACSS-2 (Homo sapiens (Human)) | yes (1) |

QUERY: Lab note: confirm whether the reported Kd for this molecule is below 90 µM, equality not counting. molecule: Cc1cccn2c(CC(=O)NCCC(c3ccccc3)c3ccco3)cnc12 (stereo not shown) [AD-3766]
RESULT: yes (1)

QUERY: Consider the molecule CN1CCC(O)(C(=O)NCCc2ccccc2Oc2ccccc2)CC1 [AD-7346] . Is its Kd strictly less than 90 µM?
RESULT: yes (1)
